B1: TPR 5TU (parent)
chain: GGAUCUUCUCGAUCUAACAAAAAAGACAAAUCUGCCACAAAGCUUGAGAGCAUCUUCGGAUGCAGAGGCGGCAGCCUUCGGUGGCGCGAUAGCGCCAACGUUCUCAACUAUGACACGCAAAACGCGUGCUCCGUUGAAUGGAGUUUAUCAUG

- Variants of: B1
- assay procedure: polymerase ribozyme fitness, log enrichment relative to wild type (log ratio); higher = more active; in vitro selection for triplet polymerase activity
Variants at the floor of the assay were thinned out.
readout name: polymerase ribozyme fitness (log ratio)

mutant="G84A A91U U102G U144A" bound_operator=≤ data_value=-4.2
mutant="G50C G94A U127C G133U A138C" bound_operator=≤ data_value=-4.2
mutant="A52C C54U U55G G67C G71U C85U G143C" bound_operator=≤ data_value=-4.2
mutant="A12U C18G C32A G84A C105U U127G" bound_operator=≤ data_value=-4.2
mutant="C18U U53A C85A C96A A137G" bound_operator=≤ data_value=-4.2
mutant="C85G G100A" bound_operator=≤ data_value=-4.2
mutant="A21U C95U C99U" bound_operator== data_value=-0.768
mutant="A37C G86U A120U U146G" bound_operator== data_value=-3.9
mutant="A29U A91U" bound_operator=≤ data_value=-4.2
mutant="U45A G48U G50A G59C G68U C96U C131A A137C G152A" bound_operator=≤ data_value=-4.2
mutant="A17G A37U C51U" bound_operator== data_value=-2.83
mutant="C35U A40C U45G G50A G88U A91G G140C" bound_operator=≤ data_value=-4.2
mutant="U4G U31A C54U G86C G92U U148G" bound_operator=≤ data_value=-4.2
mutant="A28G A49C C76U G94U A150G" bound_operator=≤ data_value=-4.2
mutant="A49U C69U" bound_operator== data_value=-1.86
mutant="U31A C93A U127C" bound_operator== data_value=-3.92
mutant="A26C U53A G58A" bound_operator== data_value=-2.74
mutant="A40U U61A A122G" bound_operator== data_value=-1.1
mutant="C57U G80A" bound_operator== data_value=-0.314
mutant="A20U G67U C116G" bound_operator=≤ data_value=-4.2
mutant="U31G U56A" bound_operator== data_value=0.083
mutant="U101G U134A U144C A150U" bound_operator== data_value=-4.09
mutant="U45G C85U" bound_operator== data_value=-0.0479
mutant="U4C A16U G83U U90C A113U U148C" bound_operator=≤ data_value=-4.2
mutant="C38U U61G C85A G94C C123A" bound_operator== data_value=-1.29
mutant="U9A C93G" bound_operator=≤ data_value=-4.2
mutant="G50U C57A C72U G84A" bound_operator== data_value=-0.724
mutant="A29C G42U C54G C93G G94C A98U G136A A142G G152U" bound_operator=≤ data_value=-4.2
mutant="U45A A47U U77G C114G A122U" bound_operator=≤ data_value=-4.2
mutant="A52C G58C C85A" bound_operator== data_value=-3.96
mutant="G42A A142C" bound_operator== data_value=-4.17
mutant="C54A U61A C93G C149G" bound_operator=≤ data_value=-4.2
mutant="C14U U55A G126A C132U" bound_operator== data_value=-1.73
mutant="U82C C95A" bound_operator== data_value=-1.46
mutant="G50U C87U C114A" bound_operator== data_value=-3.78
mutant="A12U C14G A29C C32U U45A G80C" bound_operator=≤ data_value=-4.2
mutant="A52G G100U" bound_operator== data_value=-3.98
mutant="U4A U6G A22U U31G C35U U56A G68C C95U C125G U144C" bound_operator=≤ data_value=-4.2
mutant="G42C U55A A60U C87U A115U" bound_operator=≤ data_value=-4.2
mutant="G48C C96G C103G C105G A106G" bound_operator== data_value=-3.96
mutant="A21C A26U G140C U146A" bound_operator=≤ data_value=-4.2
mutant="A12G C93G A98G G141C" bound_operator== data_value=-2.52
mutant="C75U G81A C85A C95G A98U" bound_operator== data_value=-3.71
mutant="U90G C116G" bound_operator== data_value=-3.78
mutant="G88C G141C" bound_operator== data_value=-3.84
mutant="C32G U53A C79U G140U" bound_operator== data_value=-4.06
mutant="C38G C75G G84C C103A" bound_operator=≤ data_value=-4.2
mutant="C8G A21C" bound_operator== data_value=-3.31
mutant="A91U U111C" bound_operator=≤ data_value=-4.2
mutant="G84U G124C G140U U146C" bound_operator=≤ data_value=-4.2
mutant="U6C A24G U31A A52C C87U U90G G92U C93A" bound_operator=≤ data_value=-4.2
mutant="C63U A64G G83C" bound_operator=≤ data_value=-4.2
mutant="A3U C54A" bound_operator== data_value=-2.21
mutant="C5U A23U A24C G46A C96U A137U" bound_operator=≤ data_value=-4.2
mutant="A60G G71A C75A C93U C118G" bound_operator=≤ data_value=-4.2
mutant="C51U G86C" bound_operator== data_value=-2.98
mutant="A41C C76U G81A A110C" bound_operator=≤ data_value=-4.2
mutant="G25U A49G A52U U90G C125G A142U G143C" bound_operator=≤ data_value=-4.2
mutant="C8A U53A" bound_operator== data_value=-3.45
mutant="U9G C43A C54A C75G C93G U146A" bound_operator=≤ data_value=-4.2
mutant="G94A A120C" bound_operator== data_value=-0.523
mutant="C38A C95G C99U A138G" bound_operator=≤ data_value=-4.2
mutant="C57G C103G" bound_operator== data_value=-2.16
mutant="A19U C35G C57U U90C C96A C132U" bound_operator=≤ data_value=-4.2
mutant="C32U U77G C103G A138U" bound_operator=≤ data_value=-4.2
mutant="U53G C75G C76U C96A A115C" bound_operator=≤ data_value=-4.2
mutant="C10A G11U A30U C36A G48A C87G A122G" bound_operator=≤ data_value=-4.2
mutant="C27G C51U C54A U78A G94C" bound_operator=≤ data_value=-4.2
mutant="G11A C27A A73C G74A G81A A89U C93G G126U" bound_operator=≤ data_value=-4.2
mutant="C85U G140U" bound_operator== data_value=-2.51
mutant="U6A A19C A24U A28G G141C G152A" bound_operator== data_value=-3.96
mutant="C14U G83C A106C" bound_operator== data_value=-2.96
mutant="C57U C96G" bound_operator== data_value=-0.76
mutant="G11C C57G U82A G83U G141U" bound_operator== data_value=-2.65
mutant="G11A A26G U55A C87A G124C G143C U148C" bound_operator=≤ data_value=-4.2
mutant="C51U U61A G84U" bound_operator== data_value=-2.8
